- TARGET: CXCR4-CXCL12 binding (Homo sapiens, UniProt P48061)
- Construct: expressed in transfected cells
- Sequence (P48061 22-89 limits assumed): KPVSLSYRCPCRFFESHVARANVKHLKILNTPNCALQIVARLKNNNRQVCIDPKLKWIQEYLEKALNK
- ASSAY_EXPLANATION: Inhibition of CXCL12-TR binding to CXCR4-GFP (FRET)
- CONDITIONS_USED: 10 μM; Table 3
Hi there, I'd appreciate the recorded inhibition at 10 µM for every entry that follows.
Numbers only, in %.

{"MOLECULE": "COc1cc(-c2cc(-c3ccc(O)c(C)c3)nc(=O)[nH]2)ccc1O [(59)]", "REPORTED_RESULT": 83}
{"MOLECULE": "COc1ccc(-c2cc(-c3ccc(O)c(C)c3)nc(=O)[nH]2)cc1OC [(E), reference compound]", "REPORTED_RESULT": 1.8}
{"MOLECULE": "COc1cc(-c2cc(-c3ccc(Cl)cc3)nc(=O)[nH]2)ccc1O [compound (1)]", "REPORTED_RESULT": 76}
{"MOLECULE": "COc1cc(/C=C/C(=O)c2ccc(Cl)cc2)ccc1O [Chalcone-4, reference compound]", "REPORTED_RESULT": 96}

Turning now to a further record.
Give CXCR4-CXCL12 binding (Homo sapiens, UniProt P48061) inhibition at 10 µM for COc1ccc(-c2cc(-c3ccc(Cl)cc3)nc(=O)[nH]2)cc1OC [(D), reference compound]
26

Cited source: patent US11046657B2
